ASSAY EXPLANATION: Pharmacokinetics of compounds in mice
Assay type: in vivo, C57BL/6N mice
CONDITION: male, C57BL/6N, mouse, plasma, PO 10 mg/kg vs IV 2 mg/kg, read-out: Bioavailability F
MEASUREMENT KIND: bioavailability (%)
The reply should be a number in %, with the unit left off.

Memo: COCCOc1cc(NC(=O)NCc2ccc3c(C4CCC(=O)NC4=O)noc3c2)cc(Cl)c1C (centres unmarked) , reported bioavailability: 22.1

// bioavailability lookup, compound = Cc1c(Cl)cc(NC(=O)NCc2ccc3c(C4CCC(=O)NC4=O)noc3c2)cc1OCCN1CCOCC1 (centres unmarked) , result: 6.18

----------
ASSAY EXPLANATION: Pharmacokinetics of compounds in mice
Type: in vivo, C57BL/6N mice
CONDITION: male, C57BL/6N, mouse, plasma, intravenous injection, 1 mg/kg, read-out: Elimination half-life (converted)
From the text: In this study, C57BL/6N male mice were selected as the test animals, and the LC/MS/MS method was used to quantitatively determine the drug concentration in the plasma of mice intravenously or orally administered the test compounds, so as to evaluate the pharmacokinetic profile of the test compounds in mice. C57BL/6N mice (male, 20-30 g, 7-10 weeks old, Beijing Vital River). […]
MEASUREMENT KIND: half-life (h)
Provide the reading as a plain figure in h.

half-life recorded for this compound, Cc1c(Cl)cc(NC(=O)NCc2ccc3c(C4CCC(=O)NC4=O)coc3c2)cc1OCCN1CCOCC1 (centres unmarked) [WX006] , is 3.62

The compound identified as COCCOc1cc(NC(=O)NCc2ccc3c(C4CCC(=O)NC4=O)coc3c2)cc(Cl)c1C (centres unmarked) [WX005] registered its half-life at 2.71

----------
ASSAY EXPLANATION: Pharmacokinetics of the compound in rats
Assay type: in vivo, SD rats
CONDITION: male, Sprague-Dawley, rat, plasma, intravenous injection (2 mg/kg)
Description: In this study, SD male rats were selected as the test animals, and the LC/MS/MS method was used to quantitatively determine the drug concentration at different time points in the plasma of rats intravenously or orally administered the test compound, so as to evaluate the pharmacokinetic profile of the test compound in rats. Sprague Dawley (SD) rats (male, 200-300 g, 7-10 weeks old, Beijing Vital River). […]
MEASUREMENT KIND: clearance (mL/min/kg)
Unit mL/min/kg implied. Number only.

compound COCCOc1cc(NC(=O)NCc2ccc3c(C4CCC(=O)NC4=O)coc3c2)cc(Cl)c1C (stereo not shown) , clearance observed: 0.145

----------
ASSAY EXPLANATION: Pharmacokinetics of the compound in rats
Format: in vivo, SD rats
CONDITION: male, Sprague-Dawley, rat, plasma, intravenous injection (2 mg/kg), read-out: Apparent volume of distribution
MEASUREMENT KIND: Vd

The reported Vd of the molecule COCCOc1cc(NC(=O)NCc2ccc3c(C4CCC(=O)NC4=O)coc3c2)cc(Cl)c1C (stereo not shown) [WX005] was 0.121 L/kg

----------
ASSAY EXPLANATION: Pharmacokinetics of compounds in mice
Format: in vivo, C57BL/6N mice
CONDITION: male, C57BL/6N, mouse, plasma, intravenous injection, 1 mg/kg
Quick reference: clearance of the listed items.
Write down the numeric answer in mL/min/kg and omit the unit.

COCCOc1cc(NC(=O)NCc2ccc3c(C4CCC(=O)NC4=O)coc3c2)cc(Cl)c1C (centres unmarked)
2.3

Value of measured clearance for the entry Cc1c(Cl)cc(NC(=O)NCc2ccc3c(C4CCC(=O)NC4=O)coc3c2)cc1OCCN1CCOCC1 (centres unmarked) : 15.8

----------
TARGET OR TEST SYSTEM: GSPT1 (Homo sapiens, UniProt P15170+Q96SW2)
Sequence (P15170 whole entry): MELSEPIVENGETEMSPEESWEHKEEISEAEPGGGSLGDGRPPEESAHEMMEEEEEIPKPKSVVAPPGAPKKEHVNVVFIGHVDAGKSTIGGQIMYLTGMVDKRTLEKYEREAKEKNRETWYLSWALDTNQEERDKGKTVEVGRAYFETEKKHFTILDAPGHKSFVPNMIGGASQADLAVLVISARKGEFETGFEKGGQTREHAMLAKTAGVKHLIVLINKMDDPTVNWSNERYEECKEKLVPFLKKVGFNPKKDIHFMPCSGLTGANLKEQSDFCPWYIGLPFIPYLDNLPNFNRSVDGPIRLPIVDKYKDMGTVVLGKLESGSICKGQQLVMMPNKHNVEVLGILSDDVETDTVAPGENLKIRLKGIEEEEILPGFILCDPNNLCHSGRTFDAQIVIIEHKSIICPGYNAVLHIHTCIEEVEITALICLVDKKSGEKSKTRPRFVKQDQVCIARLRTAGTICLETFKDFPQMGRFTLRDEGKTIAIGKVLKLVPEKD
Sequence (Q96SW2 whole entry): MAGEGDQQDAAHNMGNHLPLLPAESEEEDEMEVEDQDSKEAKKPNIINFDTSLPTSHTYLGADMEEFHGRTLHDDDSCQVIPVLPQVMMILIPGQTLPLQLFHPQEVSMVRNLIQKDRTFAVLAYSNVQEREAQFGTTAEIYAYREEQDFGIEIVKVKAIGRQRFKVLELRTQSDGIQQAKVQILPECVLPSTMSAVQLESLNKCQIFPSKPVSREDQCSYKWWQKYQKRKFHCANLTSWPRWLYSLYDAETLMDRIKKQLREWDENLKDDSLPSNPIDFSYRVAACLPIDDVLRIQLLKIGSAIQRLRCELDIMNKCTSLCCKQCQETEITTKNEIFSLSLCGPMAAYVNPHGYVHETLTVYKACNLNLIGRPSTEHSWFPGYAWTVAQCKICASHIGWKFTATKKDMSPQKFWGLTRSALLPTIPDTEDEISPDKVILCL
Sequence (Q16531 whole entry partner): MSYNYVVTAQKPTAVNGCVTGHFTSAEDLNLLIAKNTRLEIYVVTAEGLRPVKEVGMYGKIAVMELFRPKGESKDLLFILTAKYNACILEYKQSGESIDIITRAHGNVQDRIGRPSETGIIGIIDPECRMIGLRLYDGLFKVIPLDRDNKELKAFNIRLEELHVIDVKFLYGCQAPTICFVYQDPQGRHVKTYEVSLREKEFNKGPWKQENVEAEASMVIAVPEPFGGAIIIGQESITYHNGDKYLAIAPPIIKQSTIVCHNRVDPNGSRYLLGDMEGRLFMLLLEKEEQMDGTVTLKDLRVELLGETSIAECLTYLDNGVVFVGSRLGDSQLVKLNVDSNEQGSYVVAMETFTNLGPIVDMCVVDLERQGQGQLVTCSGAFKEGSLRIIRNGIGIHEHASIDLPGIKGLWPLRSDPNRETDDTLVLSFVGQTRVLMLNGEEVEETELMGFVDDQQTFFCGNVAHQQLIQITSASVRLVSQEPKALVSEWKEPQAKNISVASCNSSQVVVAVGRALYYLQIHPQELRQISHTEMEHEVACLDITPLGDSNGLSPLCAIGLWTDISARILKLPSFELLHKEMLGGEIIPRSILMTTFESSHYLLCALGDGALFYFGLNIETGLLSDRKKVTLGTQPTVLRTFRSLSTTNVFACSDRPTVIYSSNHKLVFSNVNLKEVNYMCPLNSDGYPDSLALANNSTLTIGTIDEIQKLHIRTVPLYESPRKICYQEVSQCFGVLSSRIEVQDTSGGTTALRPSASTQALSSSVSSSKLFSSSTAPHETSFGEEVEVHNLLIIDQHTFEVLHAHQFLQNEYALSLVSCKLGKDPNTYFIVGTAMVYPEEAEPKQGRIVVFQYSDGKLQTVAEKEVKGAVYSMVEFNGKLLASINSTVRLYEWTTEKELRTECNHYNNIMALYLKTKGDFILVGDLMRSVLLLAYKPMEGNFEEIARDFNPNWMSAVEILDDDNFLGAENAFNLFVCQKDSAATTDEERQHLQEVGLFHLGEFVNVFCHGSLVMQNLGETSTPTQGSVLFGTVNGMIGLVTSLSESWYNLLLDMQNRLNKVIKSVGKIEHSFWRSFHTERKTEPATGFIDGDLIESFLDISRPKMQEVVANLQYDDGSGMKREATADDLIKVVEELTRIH
ASSAY EXPLANATION: Target protein degradation in HEK293T-LgBiT_GSPT1-nHiBiT cells (HiBiT luminescence)
Format: cell-based
Parameters: expressed in transfected cells
CONDITION: 16 to 18 hours, read-out: Max. DR (maximum degradation rate)
MEASUREMENT KIND: Dmax (%)
Numbers only here, please. The scale is %.

// below: answered compounds
Cc1c(Cl)cc(NC(=O)NCc2ccc3c(C4CCC(=O)NC4=O)noc3c2)cc1OCCN1CCOCC1 (stereo not shown)
99.8
COCCOc1cc(NC(=O)NCc2ccc3c(C4CCC(=O)NC4=O)coc3c2)cc(Cl)c1C (stereo not shown)
100
Cc1c(Cl)cc(NC(=O)NCc2ccc3c(C4CCC(=O)NC4=O)coc3c2)cc1OCCN1CCOCC1 (stereo not shown)
99.9

Now let's try a different one.
The reported value for COCCOc1cc(NC(=O)NCc2ccc3c(C4CCC(=O)NC4=O)noc3c2)cc(Cl)c1C (stereo not shown) in terms of Dmax is 100

----------
TARGET OR TEST SYSTEM: GSPT1 (Homo sapiens, UniProt P15170+Q96SW2)
ASSAY EXPLANATION: Target protein degradation in HEK293T-LgBiT_GSPT1-nHiBiT cells (HiBiT luminescence)
Type: cell-based
Set-up: expressed in transfected cells
CONDITION: 16 to 18 hours
Overview of recorded DC50 for various molecules
Field: numeric (nM). Do not append units.

Solved entries:
COCCOc1cc(NC(=O)NCc2ccc3c(C4CCC(=O)NC4=O)noc3c2)cc(Cl)c1C (stereo not shown) [WX013]
1.07
Cc1c(Cl)cc(NC(=O)NCc2ccc3c(C4CCC(=O)NC4=O)coc3c2)cc1OCCN1CCOCC1 (stereo not shown) [WX006]
1.94
COCCOc1cc(NC(=O)NCc2ccc3c(C4CCC(=O)NC4=O)coc3c2)cc(Cl)c1C (stereo not shown) [WX005]
2.51

Switching to the query record.
Note to self: DC50 recorded for Cc1c(Cl)cc(NC(=O)NCc2ccc3c(C4CCC(=O)NC4=O)noc3c2)cc1OCCN1CCOCC1 (stereo not shown) [WX012] was 1.18

----------
# Vd values compiled below
ASSAY EXPLANATION: Pharmacokinetics of compounds in mice
Type: in vivo, C57BL/6N mice
CONDITION: male, C57BL/6N, mouse, plasma, intravenous injection, 2 mg/kg, read-out: Apparent volume of distribution
A number alone suffices; assume L/kg.

So, COCCOc1cc(NC(=O)NCc2ccc3c(C4CCC(=O)NC4=O)noc3c2)cc(Cl)c1C (centres unmarked) ? Its Vd was 0.44

Just so you know, measured Vd for Cc1c(Cl)cc(NC(=O)NCc2ccc3c(C4CCC(=O)NC4=O)noc3c2)cc1OCCN1CCOCC1 (centres unmarked) came out at 0.41

----------
ASSAY EXPLANATION: Pharmacokinetics of compounds in mice
Type: in vivo, C57BL/6N mice
CONDITION: administration by gavage, 10 mg/kg
MEASUREMENT KIND: Time to peak (h)
Record the value in h, omitting the unit from your answer.

Cc1c(Cl)cc(NC(=O)NCc2ccc3c(C4CCC(=O)NC4=O)noc3c2)cc1OCCN1CCOCC1 (stereo not shown)
1.08
COCCOc1cc(NC(=O)NCc2ccc3c(C4CCC(=O)NC4=O)coc3c2)cc(Cl)c1C (stereo not shown)
1.00
Cc1c(Cl)cc(NC(=O)NCc2ccc3c(C4CCC(=O)NC4=O)coc3c2)cc1OCCN1CCOCC1 (stereo not shown)
0.50

Lab note: COCCOc1cc(NC(=O)NCc2ccc3c(C4CCC(=O)NC4=O)noc3c2)cc(Cl)c1C (stereo not shown) gave Time to peak of 2.67

----------
ASSAY EXPLANATION: Pharmacokinetics of compounds in mice
Format: in vivo, C57BL/6N mice
CONDITION: male, C57BL/6N, mouse, plasma, PO 10 mg/kg vs IV 1 mg/kg, read-out: Bioavailability F
MEASUREMENT KIND: bioavailability (%)
// units = %; emit number, no label

COCCOc1cc(NC(=O)NCc2ccc3c(C4CCC(=O)NC4=O)coc3c2)cc(Cl)c1C (centres unmarked)
75.9

Now for a further compound.
// recorded bioavailability for Cc1c(Cl)cc(NC(=O)NCc2ccc3c(C4CCC(=O)NC4=O)coc3c2)cc1OCCN1CCOCC1 (centres unmarked) : 14.2

----------
ASSAY EXPLANATION: Pharmacokinetics of compounds in mice
Type: in vivo, C57BL/6N mice
CONDITION: male, C57BL/6N, mouse, plasma, intravenous injection, 2 mg/kg
Catalogue of compounds with associated clearance
Dear colleague, please return just the value in mL/min/kg, with no unit written.

Cc1c(Cl)cc(NC(=O)NCc2ccc3c(C4CCC(=O)NC4=O)noc3c2)cc1OCCN1CCOCC1 (centres unmarked)
9.5

Record COCCOc1cc(NC(=O)NCc2ccc3c(C4CCC(=O)NC4=O)noc3c2)cc(Cl)c1C (centres unmarked) , field clearance: 1.84
